Entries and their measured hGIPR cAMP EC50 ratio follow.
Target: T1, human gastric inhibitory peptide receptor (GIPR) (human, UniProt P48546 22-466)
T1 sequence (looked up): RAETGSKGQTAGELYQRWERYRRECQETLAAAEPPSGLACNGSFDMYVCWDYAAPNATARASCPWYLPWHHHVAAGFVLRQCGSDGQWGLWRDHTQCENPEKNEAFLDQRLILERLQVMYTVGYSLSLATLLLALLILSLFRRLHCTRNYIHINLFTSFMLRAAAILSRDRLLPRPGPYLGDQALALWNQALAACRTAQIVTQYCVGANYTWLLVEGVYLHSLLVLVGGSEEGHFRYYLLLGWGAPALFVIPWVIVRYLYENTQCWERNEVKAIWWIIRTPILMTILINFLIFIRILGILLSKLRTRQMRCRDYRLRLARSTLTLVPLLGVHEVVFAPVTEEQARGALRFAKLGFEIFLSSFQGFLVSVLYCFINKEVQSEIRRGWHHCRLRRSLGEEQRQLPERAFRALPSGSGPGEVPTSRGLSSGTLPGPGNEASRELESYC
Assay: cell-based or functional assay
Numbered stars: 1 amine (or outer) side, 2 acyl side, 3 side chain; on linkers, the order of the positions; unused ones are H or OH. Square brackets hold non-standard residues; d marks the D form. Side chains are listed from the residue outwards. Ends that are not written are not given here. * marks the point of attachment. C20 diacid = O=C(O)CCCCCCCCCCCCCCCCCCC(=O)*; αMePhe(2-F) = C[C@](N)(Cc1ccccc1F)C(=O)O; γGlu = O=C(O)[C@H](CCC(=O)[*:2])N[*:1]; Desaminotyrosyl = O=C(CCc1ccc(O)cc1)*; αMeF = C[C@](N)(Cc1ccccc1)C(=O)O; AEEA = NCCOCCOCC(=O)O; Aib = CC(C)(N)C(=O)O
property label: hGIPR cAMP EC50 ratio

{"columns": ["binder", "result value"],
 "data": [
  ["[Desaminotyrosyl][Aib]EGT[αMePhe(2-F)]TSDYSIXLDEK([AEEA-AEEA-γGlu-C20 diacid])AQ[Aib]EFIEYLIEGGPSSGAPPPS-NH2 (not fully specified (residue 13); printed as DesTyr-Aib-EGT-αMeF(2F)-TSDYSI-αMeF-LDEK((2-[2-(2-Amino-ethoxy)-ethoxy]-acetyl)2-(γ-Glu)-CO-(CH2)18-CO2H)AQ-Aib-EFIEYLIEGGPSSGAPPPS-NH2) [Example 134]", 1.43],
  ["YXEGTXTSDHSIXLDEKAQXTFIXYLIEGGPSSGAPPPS (Y-Aib-EGT-αMeF(2F)-TSDHSI-αMeF-LDEK((2-[2-(2-Amino-ethoxy)-ethoxy]-acetyl)2-(γ-Glu)-CO-(CH2)18-CO2H)AQ-Aib-TFI-(D-Glu)-YLIEGGPSSGAPPPS-NH2) [Example 168]", 0.313],
  ["YXEGTXTSDHSIXLDEKAQXHFIXYLIEGGPSSGAPPPS (Y-Aib-EGT-αMeF(2F)-TSDHSI-αMeF-LDEK((2-[2-(2-Amino-ethoxy)-ethoxy]-acetyl)2-(γ-Glu)-CO-(CH2)14-CO2H)AQ-Aib-HFI-(D-Glu)-YLIEGGPSSGAPPPS-NH2) [Example 178]", 0.0341],
  ["Y[Aib]EGT[αMePhe(2-F)]TSDYSIXLDEKAQ[Aib]EFIPYLIEGGPSSGAPPPS-NH2 (not fully specified (residues 13, 17); printed as Y-Aib-EGT-αMeF(2F)-TSDYSI-αMeF-LDEK((2-[2-(2-Amino-ethoxy)-ethoxy]-acetyl)2-(γ-Glu)-CO-(CH2)18-CO2H)AQ-Aib-EFIPYLIEGGPSSGAPPPS-NH2) [Example 151]", 0.262],
  ["YXEGTXTSDHSIXLDEKAQXHFIXYLIEGGPSSGAPPPS (Y-Aib-EGT-αMeF(2F)-TSDHSI-αMeF-LDEK((2-[2-(2-Amino-ethoxy)-ethoxy]-acetyl)2-(γ-Glu)-CO-(CH2)16-CO2H)AQ-Aib-HFI-(D-Glu)-YLIEGGPSSGAPPPS-NH2) [Example 177]", 0.0749],
  ["Y[Aib]EGT[αMeF]TSDYSIXLDKK([AEEA-AEEA-γGlu-C20 diacid])AQ[Aib]TFIEYLIEGGPSSGAPPPS-NH2 (not fully specified (residue 13); printed as Y-Aib-EGT-αMeF-TSDYSI-αMeF-LDKK((2-[2-(2-Amino-ethoxy)-ethoxy]-acetyl)2-(γ-Glu)-CO-(CH2)18-CO2H)AQ-Aib-TFIEYLIEGGPSSGAPPPS-NH2) [Example 139]", 3.61],
  ["YXEGTXTSDVSIXLDEKAQXEFIXYLIEGGPSSGAPPPS (Y-Aib-EGT-αMeF(2F)-TSDVSI-αMeF-LDEK((2-[2-(2-Amino-ethoxy)-ethoxy]-acetyl)2-(γ-Glu)-CO-(CH2)18-CO2H)AQ-Aib-EFI-(D-Glu)-YLIEGGPSSGAPPPS-NH2) [Example 191]", 2.53],
  ["YXEGTXTSDESILLDKKAQXAFIEYLIEGGPSSGAPPPS (Y-Aib-EGT-αMeF-TSDESILLDKK((2-[2-(2-Amino-ethoxy)-ethoxy]-acetyl)2-(γ-Glu)-CO-(CH2)18-CO2H)AQ-Aib-AFIEYLIEGGPSSGAPPPS-NH2) [Example 130]", 0.116],
  ["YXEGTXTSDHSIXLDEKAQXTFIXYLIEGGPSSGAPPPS (Y-Aib-EGT-αMeF(2F)-TSDHSI-αMeF-LDEK((2-[2-(2-Amino-ethoxy)-ethoxy]-acetyl)2-(ϵK)-CO-(CH2)18-CO2H)AQ-Aib-TFI-(D-Glu)-YLIEGGPSSGAPPPS-NH2) [Example 175]", 1.19],
  ["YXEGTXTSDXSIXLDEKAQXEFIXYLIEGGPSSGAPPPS (Y-Aib-EGT-αMeF(2F)-TSD-(D-Tyr)-SI-αMeF-LDEK((2-[2-(2-Amino-ethoxy)-ethoxy]-acetyl)2-(γ-Glu)-CO-(CH2)18-CO2H)AQ-Aib-EFI-(D-Glu)-YLIEGGPSSGAPPPS-NH2) [Example 184]", 2.45],
  ["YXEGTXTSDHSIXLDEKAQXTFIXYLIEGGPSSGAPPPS (Y-Aib-EGT-αMeF(2F)-TSDHSI-αMeF-LDEK((2-[2-(2-Amino-ethoxy)-ethoxy]-acetyl)2-(γ-Glu)-CO-(CH2)16-CO2H)AQ-Aib-TFI-(D-Glu)-YLIEGGPSSGAPPPS-NH2) [Example 169]", 0.122],
  ["Y[Aib]EGT[αMePhe(2-F)]TSDHSIXLDEKAQ[Aib]EFIEYLIEGGPSSGAPPPS-NH2 (not fully specified (residues 13, 17); printed as Y-Aib-EGT-αMeF(2F)-TSDHSI-αMeF-LDEK((2-[2-(2-Amino-ethoxy)-ethoxy]-acetyl)2-(γ-Glu)-CO-(CH2)18-CO2H)AQ-Aib-EFIEYLIEGGPSSGAPPPS-NH2) [Example 154]", 5.9],
  ["YXEGTXTSDXSIXLDEKAQXTFIXYLIEGGPSSGAPPPS (Y-Aib-EGT-αMeF(2F)-TSD-Aib-SI-αMeF-LDEK((2-[2-(2-Amino-ethoxy)-ethoxy]-acetyl)2-(γ-Glu)-CO-(CH2)18-CO2H)AQ-Aib-TFI-(D-Glu)-YLIEGGPSSGAPPPS-NH2) [Example 160]", 0.00712],
  ["YXEGTXTSDLSILLDKKAQXAFIEYLIEGGPSSGAPPPS (Y-Aib-EGT-αMeF-TSDLSILLDKK((2-[2-(2-Amino-ethoxy)-ethoxy]-acetyl)2-(γ-Glu)-CO-(CH2)18-CO2H)AQ-Aib-AFIEYLIEGGPSSGAPPPS-NH2) [Example 129]", 1.88],
  ["Y[Aib]EGT[αMePhe(2-F)]TSDYSIXLDEKAQ[Aib]EFIVYLIEGGPSSGAPPPS-NH2 (not fully specified (residues 13, 17); printed as Y-Aib-EGT-αMeF(2F)-TSDYSI-αMeF-LDEK((2-[2-(2-Amino-ethoxy)-ethoxy]-acetyl)2-(γ-Glu)-CO-(CH2)18-CO2H)AQ-Aib-EFIVYLIEGGPSSGAPPPS-NH2) [Example 149]", 1.82],
  ["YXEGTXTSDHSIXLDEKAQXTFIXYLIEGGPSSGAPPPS (Y-Aib-EGT-αMeF(2F)-TSDHSI-αMeF-LDEK((2-[2-(2-Amino-ethoxy)-ethoxy]-acetyl)2-(ϵK)-CO-(CH2)16-CO2H)AQ-Aib-TFI-(D-Glu)-YLIEGGPSSGAPPPS-NH2) [Example 176]", 0.201]
]}
